normalized growth reference
# method_notes: chemical genetic growth profiling, strain panel (AID 1159580);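 also: tested at 20 µM; growth read once vehicle control cultures reached saturation at 30 °C; 1 = growth at the plate median or of vehicle wells; lower values mean less growth of the strain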
# measurement_context: S. cerevisiae deletion strains, growth OD, locus YBR279W, strain paf1, stronger effect = lower value
In all, about 5,500 compounds went through this assay and about 2,000 (36%) were called active. Inconclusive results (about 18%) are left out. The list shows a part of the results.

compound: Cc1ccccc1N1C(=O)c2cc(S(N)(=O)=O)c(Cl)cc2NC1C (stereo not given)
normalized growth: 0.996

compound: COc1c(O)cc2c(c1O)[C@H]1O[C@H](CO)[C@@H](O)[C@H](O)[C@@H]1OC2=O
normalized growth: 1.02

compound: O=c1c(-c2ccc(O)cc2)coc2c(C3O[C@H](CO)[C@@H](O)[C@H](O)[C@H]3O)c(O)ccc12 (stereo not given in full)
normalized growth: 0.985

compound: COc1ccccc1N1CCN(CCCNc2cc(=O)n(C)c(=O)n2C)CC1
normalized growth: 1.01

compound: O=C(Oc1ccccc1C(=O)O)c1ccccc1O
normalized growth: 1

compound: O=c1c2cc(O)c(O)cc2oc2cc(O)c(C3O[C@H](CO)[C@H](O)[C@@H](O)[C@H]3O)c(O)c12 (stereo not given in full)
normalized growth: 1.01

compound: Nc1ccc(S(=O)(=O)Nc2ncccn2)cc1
normalized growth: 0.995

compound: CC(=O)Oc1ccccc1C(=O)Oc1ccccc1C(=O)O
normalized growth: 1

compound: CC1(C)C(O)CC(=O)C2(C)C1CC(O)C1(C)C2CCC2(C)C(c3ccoc3)OC(=O)C3OC321 (stereo not given)
normalized growth: 0.997

compound: O=C(Oc1cccc2cccnc12)c1ccccc1
normalized growth: 0.957
